system: NCI-H522 lung; test: NCI tumour cell line growth inhibition, 48 h
Where a SMILES comes first, the peptide text is derived from it. [ ]: non-standard residue; d: D form. The star is where a group is joined. ξ: configuration not given here. 4Abz = Nc1ccc(C(=O)O)cc1; ξL = CC(C)CC(N)C(=O)O; NHOH = ON*
Reported TGI values are given for each entry in this list.

Completed entries (count: 5):
INSERT INTO assay_data (molecule, result) VALUES
  ('Cc1c(Br)cccc1NC(=O)c1sc2nc3c(cc2c1N)CN(Cc1ccccc1)CC3', '> 50 µM'),
  ('CC(C)CC(NC(=O)[C@@H]1CCCN1C(=O)CNC(=O)c1ccc(N)cc1)C(=O)N[C@H](C)C(=O)NO (some centres undefined) (H-[4Abz]GP[ξL][dA]-{NHOH})', '> 100 µM'),
  ('O=C1C=Cc2cc3ccccc3c3cccc1c23', '> 100 µM'),
  ('c1ccc2c(c1)N=c1ccccc1=P21c2ccccc2Nc2ccccc21', '0.913 µM'),
  ('N.N.NCCCCN.O=C([O-])CCl.O=C([O-])CCl.O=C([O-])CCl.O=C([O-])CCl.[Pt+4].[Pt+4]', '> 50 µM');

Reported TGI for CS(=O)(=O)c1ccc(C2=C(c3ccccc3)C(=O)OC2)cc1 was > 100 µM

Reported TGI for COC(=O)C1=C(O)C(C(=O)OC)[C@@]2(O)[C@@H](C(=O)OC)C(c3ccccc3C(F)(F)F)C[C@@H]1[C@@H]2C(=O)OC (some centres undefined) was 33.2 µM

Reported TGI for CSCC[C@@H](NC(=O)[C@H](CC(C)C)NC(=O)C(Cc1cnc[nH]1)NC(=O)CNC(=O)[C@@H](NC(=O)[C@H](C)NC(=O)[C@H](Cc1cn(C=O)c2ccccc12)NC(=O)[C@H](CCC(N)=O)NC(=O)[C@@H](N)CC(N)=O)C(C)C)C(N)=O (some centres undefined) was > 100 µM

Reported TGI for NC(=O)c1ccc(N)nc1 was > 400 µM

Reported TGI for O=C(O)CSc1ccn(Cc2ccccc2)c1 was > 100 µM

Reported TGI for c1cc(C2O[C@H]3CCCN3[C@@H]2c2ccncc2)ccn1 (some centres undefined) was > 100 µM

Reported TGI for CC(C)n1c2c(c3ccccc3c1=O)C(=O)c1ccccc1-2 was > 100 µM

Reported TGI for O=C1OS2(OC(=O)c3cccc4cccc2c34)c2ccccc21 (centres undefined) was > 100 µM

Reported TGI for N=C(N)c1ccc(-c2ccc(-c3ccco3)o2)cc1 was 14.6 µM

Reported TGI for Cc1cc2nc(N)n[n+]([O-])c2cc1C was > 100 µM
